Molecular target: human Y4 stable CHO clonal cells (Homo sapiens, UniProt P50391)
Sequence (P50391 whole entry): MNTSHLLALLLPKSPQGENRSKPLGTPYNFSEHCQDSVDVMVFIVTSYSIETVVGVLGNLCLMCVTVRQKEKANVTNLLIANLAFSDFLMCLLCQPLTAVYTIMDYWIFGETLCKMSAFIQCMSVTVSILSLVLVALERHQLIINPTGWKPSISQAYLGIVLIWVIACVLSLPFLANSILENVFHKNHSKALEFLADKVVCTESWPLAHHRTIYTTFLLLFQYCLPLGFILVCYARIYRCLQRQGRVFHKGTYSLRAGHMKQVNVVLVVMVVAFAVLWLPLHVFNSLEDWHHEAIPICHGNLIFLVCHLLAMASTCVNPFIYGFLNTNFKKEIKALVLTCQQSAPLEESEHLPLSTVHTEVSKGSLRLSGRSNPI
Experiment: NPY4 cAMP HTRF Agonist Assay
Conditions: inhibitory cAMP assay, Gi activation by Y4 agonism, forskolin and IBMX, 30 minutes at room temperature
pEC50: −log10 of the molar value.
property.label: pEC50

Examples from the recorded data:
[[record]]
compound_string = "COC(=O)[C@@H]1CCC[C@@H]2SCC[C@H](NC(=O)[C@H](CC[C@H](Cc3ccccc3)C(=O)N[C@H]3CCS[C@H]4CCCCN4C3=O)Cc3ccccc3)C(=O)N21"
recorded_value = 6.64

[[record]]
compound_string = "N#C[C@@H]1CCC[C@@H]2SCC[C@H](NC(=O)[C@H](CC[C@H](Cc3ccccc3)C(=O)N[C@H]3CCCCN(c4ccccc4)C3=O)Cc3ccccc3)C(=O)N12"
recorded_value = 7.26

[[record]]
compound_string = "COc1ccccc1N1CCCC[C@H](NC(=O)[C@H](CC[C@H](Cc2ccccc2)C(=O)N[C@H]2CCS[C@H]3CCC[C@@H](C(F)(F)F)N3C2=O)Cc2ccccc2)C1=O"
recorded_value = 7.74

[[record]]
compound_string = "COC(=O)[C@@H]1CCC[C@@H]2SCC[C@H](NC(=O)[C@H](CC[C@H](Cc3ccccc3)C(=O)N[C@@H]3C(=O)N4CCC[C@@H]4SC3(C)C)Cc3ccccc3)C(=O)N21"
recorded_value = 7.22

[[record]]
compound_string = "COC(=O)[C@@H]1CCC[C@@H]2SCC[C@H](NC(=O)[C@H](CC[C@H](Cc3ccc(O)cc3)C(=O)N[C@H]3CCS[C@H]4CCC[C@@H](C(=O)OC)N4C3=O)Cc3ccccc3)C(=O)N21"
recorded_value = 8.30

[[record]]
compound_string = "CCC[C@@H](CC[C@H](Cc1cccc(F)c1)C(=O)N[C@H]1CCS[C@H]2CCC[C@@H](C(=O)OC)N2C1=O)C(=O)N[C@H]1CCS[C@H]2CCC[C@@H](C(=O)OC)N2C1=O"
recorded_value = 6.68

[[record]]
compound_string = "COC(=O)[C@@H]1CCCN2CCC[C@H](NC(=O)[C@H](CC[C@H](Cc3ccccc3)C(=O)N[C@H]3CCCN4CCC[C@@H](C(=O)OC)N4C3=O)Cc3ccccc3)C(=O)N12"
recorded_value = 6.81

[[record]]
compound_string = "COC(=O)[C@@H]1CCC[C@@H]2SCC[C@H](NC(=O)[C@H](CC[C@H](Cc3ccccc3)C(=O)N[C@H]3CCS[C@H]4CCC[C@@H](C(=O)OC)N4C3=O)Cc3ccccc3)C(=O)N21"
recorded_value = 7.77


A = COC(=O)[C@@H]1CCC[C@@H]2SCC[C@H](NC(=O)[C@H](CC[C@H](CC#N)C(=O)N[C@H]3CCS[C@H]4CCC[C@@H](C(=O)OC)N4C3=O)Cc3ccccc3)C(=O)N21
B = COC(=O)[C@@H]1CCC[C@@H]2SCC[C@H](NC(=O)[C@H](CC[C@H](CC(C)C)C(=O)N[C@H]3CCS[C@H]4CCC[C@@H](C(=O)OC)N4C3=O)Cc3ccccc3)C(=O)N21
Returns the identifier with the smallest measured pEC50 among A and B . State your choice using its label. B
